IC50 reference
Target: novel potassium-dependent sodium-calcium exchanger consisting of the amino acid sequence of SEQ ID NO: 2 (Homo sapiens)
Sequence (Q8NFF2 39-622): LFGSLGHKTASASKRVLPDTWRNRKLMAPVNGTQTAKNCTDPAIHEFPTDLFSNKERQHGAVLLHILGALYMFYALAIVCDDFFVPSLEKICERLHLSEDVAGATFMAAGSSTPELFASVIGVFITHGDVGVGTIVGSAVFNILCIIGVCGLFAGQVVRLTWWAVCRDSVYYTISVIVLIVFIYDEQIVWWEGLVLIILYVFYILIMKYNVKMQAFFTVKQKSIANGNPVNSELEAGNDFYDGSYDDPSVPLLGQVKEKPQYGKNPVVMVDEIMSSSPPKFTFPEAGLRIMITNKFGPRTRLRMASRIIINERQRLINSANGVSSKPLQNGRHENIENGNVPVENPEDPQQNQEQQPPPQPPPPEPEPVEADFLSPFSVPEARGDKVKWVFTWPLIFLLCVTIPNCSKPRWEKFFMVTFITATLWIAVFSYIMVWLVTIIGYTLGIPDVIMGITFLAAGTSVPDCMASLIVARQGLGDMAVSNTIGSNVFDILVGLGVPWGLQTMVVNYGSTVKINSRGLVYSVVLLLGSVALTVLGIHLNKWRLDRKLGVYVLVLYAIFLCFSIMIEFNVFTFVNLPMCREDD
Test: 45Ca uptake screening for inhibition of potassium-dependent sodium-calcium exchange activity in stable-expression Dede cells (SEQ ID NO: 2)
Conditions: exchanger of SEQ ID NO: 2; conditions of Example 6
Description: Sodium was incorporated into cells by changing the medium to an extracellular solution containing monensin [i.e., a solution containing 0.01 mmol/L monensin, 1 mmol/L ouabain, 146 mmol/L NaCl, 4 mmol/L KCl, 0.1 mmol/L CaCl2, 2 mmol/L MgCl2, 10 mmol/L glucose, 0.1% bovine serum albumin, and 10 mmol/L HEPES-Tris (pH=7.4)] and incubating the cells at 37° C. for 30 minutes. […]

MOLECULE | IC50 / µM
CS(=O)(=O)O.N=C(N)SCCc1ccc(OCc2ccc([N+](=O)[O-])cc2)cc1 [compound A, methanesulfonate] | 15.8
N/C(=N\C(=O)c1nc(Cl)c(N)nc1N)NCc1ccc(Cl)c(Cl)c1 | 20.2

* * *

target: novel potassium-dependent sodium-calcium exchanger consisting of the amino acid sequence of SEQ ID NO: 4 (Homo sapiens, UniProt Q8NFF2); construct: expressed in transfected cells; assay: 45Ca uptake screening for inhibition of potassium-dependent sodium-calcium exchange activity in stable-expression Dede cells (SEQ ID NO: 4); format: cell-based; details: exchanger of SEQ ID NO: 4; conditions of Example 6
Sequence (Q8NFF2 39-603 isoform Q8NFF2-3): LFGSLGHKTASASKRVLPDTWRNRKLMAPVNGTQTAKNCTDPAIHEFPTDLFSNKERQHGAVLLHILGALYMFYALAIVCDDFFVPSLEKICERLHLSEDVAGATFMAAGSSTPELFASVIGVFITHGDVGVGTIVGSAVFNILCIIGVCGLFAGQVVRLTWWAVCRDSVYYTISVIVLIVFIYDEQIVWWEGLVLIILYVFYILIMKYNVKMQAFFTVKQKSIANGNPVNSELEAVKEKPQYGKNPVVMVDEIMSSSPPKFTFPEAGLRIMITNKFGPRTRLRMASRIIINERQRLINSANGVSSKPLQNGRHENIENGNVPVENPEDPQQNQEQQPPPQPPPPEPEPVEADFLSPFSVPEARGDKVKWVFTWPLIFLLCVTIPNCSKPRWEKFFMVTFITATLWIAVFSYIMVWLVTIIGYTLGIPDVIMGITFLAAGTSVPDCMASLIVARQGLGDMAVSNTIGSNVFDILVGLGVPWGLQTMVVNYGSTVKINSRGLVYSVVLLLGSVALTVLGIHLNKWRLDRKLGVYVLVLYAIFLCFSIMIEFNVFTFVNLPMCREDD
IC50 reference

COMPOUND | IC50 / µM
CS(=O)(=O)O.N=C(N)SCCc1ccc(OCc2ccc([N+](=O)[O-])cc2)cc1 [compound A, methanesulfonate] | 35
N/C(=N\C(=O)c1nc(Cl)c(N)nc1N)NCc1ccc(Cl)c(Cl)c1 | 58.9
